# TARGET SYSTEM: LRRK2 (Homo sapiens, UniProt Q5S007, G2019S)
# Construct: purchased Invitrogen PV4882
# Sequence (Q5S007 whole entry G2019S): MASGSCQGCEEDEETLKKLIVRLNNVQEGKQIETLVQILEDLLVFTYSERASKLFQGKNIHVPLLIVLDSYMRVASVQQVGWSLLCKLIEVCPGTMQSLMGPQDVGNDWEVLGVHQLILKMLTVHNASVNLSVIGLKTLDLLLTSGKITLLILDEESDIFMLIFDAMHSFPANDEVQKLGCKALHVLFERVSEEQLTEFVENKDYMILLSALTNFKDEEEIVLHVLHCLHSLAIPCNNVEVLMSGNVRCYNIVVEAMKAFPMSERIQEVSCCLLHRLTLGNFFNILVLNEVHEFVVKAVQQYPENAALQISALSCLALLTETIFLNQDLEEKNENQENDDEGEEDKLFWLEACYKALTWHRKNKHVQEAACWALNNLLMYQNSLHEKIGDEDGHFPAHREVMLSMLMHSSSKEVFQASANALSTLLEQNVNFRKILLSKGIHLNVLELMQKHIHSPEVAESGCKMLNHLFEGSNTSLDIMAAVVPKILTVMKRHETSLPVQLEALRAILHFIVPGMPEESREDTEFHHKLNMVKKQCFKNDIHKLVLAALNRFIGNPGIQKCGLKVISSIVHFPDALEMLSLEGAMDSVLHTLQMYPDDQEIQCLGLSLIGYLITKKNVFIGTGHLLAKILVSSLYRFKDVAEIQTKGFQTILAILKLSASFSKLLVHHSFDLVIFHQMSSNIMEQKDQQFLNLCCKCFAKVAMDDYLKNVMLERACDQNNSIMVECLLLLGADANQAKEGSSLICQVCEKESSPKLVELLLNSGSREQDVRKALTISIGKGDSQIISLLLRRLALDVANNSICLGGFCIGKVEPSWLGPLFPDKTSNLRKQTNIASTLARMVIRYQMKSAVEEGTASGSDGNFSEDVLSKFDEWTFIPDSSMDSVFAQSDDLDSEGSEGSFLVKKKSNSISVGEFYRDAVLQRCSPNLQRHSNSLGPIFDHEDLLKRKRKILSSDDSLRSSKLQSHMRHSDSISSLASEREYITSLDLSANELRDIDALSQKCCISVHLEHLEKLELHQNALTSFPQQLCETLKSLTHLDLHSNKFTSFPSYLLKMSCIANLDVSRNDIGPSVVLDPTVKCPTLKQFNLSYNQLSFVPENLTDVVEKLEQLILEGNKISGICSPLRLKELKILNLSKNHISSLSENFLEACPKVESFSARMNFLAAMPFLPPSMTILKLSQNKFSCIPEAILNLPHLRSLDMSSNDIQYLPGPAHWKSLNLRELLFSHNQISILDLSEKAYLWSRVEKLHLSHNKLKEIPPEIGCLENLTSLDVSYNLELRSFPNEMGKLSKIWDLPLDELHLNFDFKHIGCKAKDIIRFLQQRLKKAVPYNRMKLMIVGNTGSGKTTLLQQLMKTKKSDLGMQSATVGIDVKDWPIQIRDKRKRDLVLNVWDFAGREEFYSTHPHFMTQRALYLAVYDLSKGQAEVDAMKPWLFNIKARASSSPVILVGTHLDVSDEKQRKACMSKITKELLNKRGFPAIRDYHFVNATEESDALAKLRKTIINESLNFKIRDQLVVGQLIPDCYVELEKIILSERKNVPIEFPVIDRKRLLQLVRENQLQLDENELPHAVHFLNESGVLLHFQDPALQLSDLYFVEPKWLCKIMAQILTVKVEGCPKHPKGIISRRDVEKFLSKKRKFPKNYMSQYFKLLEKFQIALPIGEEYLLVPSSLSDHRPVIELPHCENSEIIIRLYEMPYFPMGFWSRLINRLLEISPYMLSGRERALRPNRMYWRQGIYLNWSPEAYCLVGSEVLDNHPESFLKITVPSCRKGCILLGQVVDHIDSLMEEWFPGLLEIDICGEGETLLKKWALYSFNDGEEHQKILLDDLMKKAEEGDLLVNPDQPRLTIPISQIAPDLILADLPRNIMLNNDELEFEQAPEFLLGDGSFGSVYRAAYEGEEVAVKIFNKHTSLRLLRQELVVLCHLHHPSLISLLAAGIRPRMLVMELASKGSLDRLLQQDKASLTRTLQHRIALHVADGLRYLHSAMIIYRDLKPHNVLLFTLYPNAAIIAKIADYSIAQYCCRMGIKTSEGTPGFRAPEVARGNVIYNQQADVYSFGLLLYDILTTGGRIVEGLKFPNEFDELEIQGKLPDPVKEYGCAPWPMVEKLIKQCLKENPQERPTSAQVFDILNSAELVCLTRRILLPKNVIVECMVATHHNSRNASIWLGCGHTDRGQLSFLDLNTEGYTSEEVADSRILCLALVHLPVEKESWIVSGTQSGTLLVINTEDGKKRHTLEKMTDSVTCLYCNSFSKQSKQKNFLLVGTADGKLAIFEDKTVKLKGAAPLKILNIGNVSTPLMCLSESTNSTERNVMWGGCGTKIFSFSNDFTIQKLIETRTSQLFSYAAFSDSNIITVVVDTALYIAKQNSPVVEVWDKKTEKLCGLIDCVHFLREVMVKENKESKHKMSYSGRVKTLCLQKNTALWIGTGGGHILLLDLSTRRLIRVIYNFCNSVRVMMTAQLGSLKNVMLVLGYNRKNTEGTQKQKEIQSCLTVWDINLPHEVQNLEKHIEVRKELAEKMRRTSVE
# ASSAY PROCEDURE: In Vitro LRRK2 LabChip Assay (LRRK2 Ki)
# Type: biochemical
# EXPERIMENTAL PARAMETERS: Table 5 compounds (formula I)
pKi: −log10 of the molar value.
PROPERTY: pKi

Completed entries (count: 5):
| SMILES RECORD | TARGET SYSTEM | MEASURED VALUE |
| --- | --- | --- |
| CCNc1nc(Nc2cc(OC)c(C(=O)N3CCC(F)(F)C3)cc2OCF)ncc1C(F)(F)F | LRRK2 (Homo sapiens, UniProt Q5S007, G2019S) | 9.41 |
| CCNc1nc(Nc2cc(OC)c(C(=O)N3CCOCC3)cc2OC)ncc1C(F)(F)F | LRRK2 (Homo sapiens, UniProt Q5S007, G2019S) | 9.24 |
| CCNc1nc(Nc2cc(F)c(C(=O)N3CC4(CCO4)C3)cc2OC)ncc1C(F)(F)F | LRRK2 (Homo sapiens, UniProt Q5S007, G2019S) | 8.89 |
| CCOc1nc(Nc2cc(C)c(C(=O)N3CCOCC3)cc2OC)ncc1Cl | LRRK2 (Homo sapiens, UniProt Q5S007, G2019S) | 8.53 |
| CCNc1nc(Nc2cc(OC)c(C(=O)N3CCC(F)(F)C3)cc2OCCF)ncc1C(F)(F)F | LRRK2 (Homo sapiens, UniProt Q5S007, G2019S) | 8.99 |

[P] CNc1nc(Nc2cc(C)c(C(=O)NCC(C)(C)O)cc2OC)ncc1C(F)(F)F
[Q] CNc1nc(Nc2cc(OC)c(C(=O)N3CC4(CCO4)C3)cc2Cl)ncc1C(F)(F)F
[R] CNc1nc(Nc2cc(F)c(C(=O)N(C)C3CCN(C)CC3)cc2OC)ncc1C(F)(F)F
[S] CNc1nc(Nc2cc(F)c(C(=O)N3CCOCC3)c(F)c2OC)ncc1C(F)(F)F
[ask] Put the items in order so that reported pKi rises from first to last. State the ranking by listing the labels in the requested order.
[reply] S, R, Q, P
(S: 7.61, R: 8.12, Q: 8.56, P: 8.92)

---

# TARGET SYSTEM: LRRK2 (Homo sapiens, UniProt Q5S007, G2019S)
# Construct: purchased Invitrogen PV4882
# ASSAY PROCEDURE: In Vitro LRRK2 LabChip Assay (LRRK2 Ki)
# Assay type: biochemical
# EXPERIMENTAL PARAMETERS: Table 5 compounds (formula I)
PROPERTY: Ki (nM)

Below: 5 compounds and their reported Ki.
| COMPOUND | READING UNIT | Ki |
| --- | --- | --- |
| COc1cc(C(=O)N2CCOCC2)c(C)cc1Nc1ncc(C(F)(F)F)c(NC2CC2)n1 | nM | 0.31 |
| CNc1nc(Nc2ccc(C(=O)N3CCOCC3)cc2F)ncc1C(F)(F)F | nM | 20.9 |
| CNc1nc(Nc2cc(F)c(C(=O)N3CCOCC3)cc2F)ncc1Cl | nM | 35.6 |
| CCNc1nc(Nc2cc(F)c(C(=O)NC)cc2OC)ncc1C(F)(F)F | nM | 1.31 |
| [2H]C1([2H])OC([2H])([2H])C([2H])([2H])N(C(=O)c2cc(OC)c(Nc3ncc(C(F)(F)F)c(NC)n3)cc2C)C1([2H])[2H] | nM | 0.342 |

[1] CCNc1nc(Nc2cc(F)c(C(=O)NCC3(O)CC3)cc2OC)ncc1C(F)(F)F
[2] CCNc1nc(Nc2cc(C)c(C(=O)N3CCOCC3)cc2Cl)ncc1C(F)(F)F
[ask] Of 1 and 2 , which shows the smaller Ki value? Lab log: write the label of the selected item as the result.
[reply] 1

[1] COc1nc(Nc2ccc(C(=O)N3CCOCC3)cc2O)ncc1Cl
[2] CNc1nc(Nc2cc(C)c(C(=O)N3CCOCC3)cc2C)ncc1C(F)(F)F
[3] CCNc1nc(Nc2cc(OC)c(C(=O)N3CC[C@H](F)C3)cc2F)ncc1C#N
[4] CCNc1nc(Nc2cc(C)c(C(=O)N3CCOCC3)cc2OC)ncc1C(F)(F)F
[5] CCNc1nc(Nc2cc(F)c(C(=O)NC3(CO)CC3)cc2OC)ncc1C(F)(F)F
[ask] Rank the items in ascending order with respect to Ki. The labels, placed in the requested order, form the answer.
[reply] 4, 5, 2, 3, 1
(4: 0.31 nM, 5: 0.559 nM, 2: 4.74 nM, 3: 51.6 nM, 1: 120 nM)

[a] COc1cc(C(=O)N2CCOCC2)c(F)cc1Nc1ncc(C(F)(F)F)c(NC2CC2)n1
[b] CCNc1nc(Nc2ccc(C(=O)N3CC[C@H](F)C3)cc2OC)ncc1C#N
[ask] Param metric = Ki; output whichever of a , b has the minimum value. Could you answer with the label of the item you picked?
[reply] a

[1] CNc1nc(Nc2cc(C)c(C(=O)N3CCCC3)cc2OCF)ncc1C(F)(F)F
[2] CCNc1nc(Nc2cc(F)c(C(=O)N3CCOCC3)cc2F)ncc1C(F)(F)F
[ask] Given 1 and 2 , report the one with the higher recorded Ki. Respond with the label that goes with your answer.
[reply] 2
(2: 9.48 nM, 1: 0.685 nM)
